# credit: patent US20220242939A1

target_under_test: T1, G200 N-terminal neo-epitope peptide GQPLQE-Acp-C (SEQ ID NO:50) conjugated to BSA (human, not fully specified (residue 8); printed as GQPLQE-Acp-C; also: C-terminal Cys conjugated to BSA carrier)
T1 construct: also called G200-BSA peptide; G200-peptide
T1 peptide: GQPLQE[Ahx]C
protocol: second direct ELISA, G200-BSA peptide coated at 1 µg/ml
Non-standard residues stand in square brackets, D forms with d. No end group written: not given here. Ahx = NCCCCCC(=O)O
measured_endpoint: EC50 (ng/mL)
Quick reminder: number only, in ng/mL, skip the unit.

Q. Which measured EC50 value corresponds to 17G4, recombinant IgG2c antibody (antibody, V domains shown) VH: EVQLVESGGGLVKPGGSLKLSCSASGFTFSRYAMSWVRQSPEKRLEWVAEINSGGSYSFYSDTVTGRFTISRDNAKNTLFLEMSSLRSEDTAIYYCARQLTGTDYYGTDYWGQGTSVTVSS VL: DVLMTQTPLSLPVSHGDQASISCRSSQSLLYSNGNTYLEWYLQKPGQSPKLLIYKVSNRFSGVPDRFSGSGSGTDFTLKISRVEAEDLGVYYCFQGSHVPYTFGGGTKLEIK ?
A. 5.1
